// provenance: patent US8338599B2

Experiment: Measurement of the solubility (PBS pH 7.4 vs methanol, LC/MS)
Type: physicochemical
Settings: pH 7.4, aqueous buffer, kinetic from dmso stock
solubility at 24 h listing for selected molecules.
measurement-kind: solubility at 24 h (µg/mL)

>>> numeric_value("N#CCC(=O)N1CCC(c2nc(-c3cccs3)no2)CC1 [Compound 22]")
60.4
>>> numeric_value("O=C(Nc1cccs1)N1CCC(c2nc(-c3cccs3)no2)CC1 [Compound 50]")
2.9
>>> numeric_value("CC(=O)N1CCC(c2nc(-c3cccs3)no2)CC1 [Compound 17]")
55.5
>>> numeric_value("O=C(Nc1ccccc1)N1CCC(c2nc(-c3cccs3)no2)CC1 [Compound 48]")
0.86

====

Molecular target: EthR protein (Mycobacterium tuberculosis, UniProt P9WMC1)
Sequence (P9WMC1 whole entry, looked up): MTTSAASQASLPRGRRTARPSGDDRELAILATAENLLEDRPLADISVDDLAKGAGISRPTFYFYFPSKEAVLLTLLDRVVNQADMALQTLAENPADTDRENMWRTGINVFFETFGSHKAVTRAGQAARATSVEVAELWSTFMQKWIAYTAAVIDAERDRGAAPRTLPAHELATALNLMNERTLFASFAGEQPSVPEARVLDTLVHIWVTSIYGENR
Assay: In vitro measurement of the IC50 (EthR/DNA binding, BIAcore)
Design: species or system M. tuberculosis H37Rv
pIC50: −log10 of the molar value.
measurement-kind: pIC50

>>> numeric_value("O=C(Nc1cccs1)N1CCC(c2nc(-c3cccs3)no2)CC1")
6.36
>>> numeric_value("C=CCCC(=O)N1CCC(c2nc(-c3cccs3)no2)CC1")
6.00
>>> numeric_value("O=C(Cc1cccs1)N1CCC(c2nc(-c3cccs3)no2)CC1")
6.28
>>> numeric_value("O=C(CC1CC1)N1CCC(c2nc(-c3cccs3)no2)CC1")
5.95
>>> numeric_value("N#CCC(=O)N1CCC(c2nc(-c3cccs3)no2)CC1")
5.48
>>> numeric_value("O=C(Nc1ccccc1)N1CCC(c2nc(-c3cccs3)no2)CC1")
5.94
>>> numeric_value("[N-]=[N+]=NCC(=O)N1CCC(c2nc(-c3cccs3)no2)CC1")
5.81

====

Biological target: EthR protein (Mycobacterium tuberculosis, UniProt P9WMC1)
Assay: In vitro measurement of the IC50 (EthR/DNA binding, BIAcore)
Design: species or system M. tuberculosis H37Rv
Settings: six concentrations from 0.11 μM to 27 μM; read-out: IC50
IC50 listing for selected molecules.
measurement-kind: IC50 (nM)

>>> numeric_value("O=C(COc1ccccc1)N1CCC(c2nc(-c3cccs3)no2)CC1")
1500
>>> numeric_value("O=C(CC1C=CCC1)N1CCC(c2nc(-c3cccs3)no2)CC1 (stereo not shown)")
1000
>>> numeric_value("O=C(CCC(F)(F)F)N1CCC(c2nc(-c3cccs3)no2)CC1")
1570
>>> numeric_value("O=C(CC1CCCC1)N1CCC(c2nc(-c3cccs3)no2)CC1")
1490

====

Target: EthR protein (Mycobacterium tuberculosis)
Assay: In vitro measurement of the IC50 (EthR/DNA binding, BIAcore)
Parameters: species or system M. tuberculosis H37Rv
Details: six concentrations from 0.11 μM to 27 μM; read-out: IC50
Lab note: compare IC50 with 1 µM, writing t if less and f if equal or more.

>>> class_assignment("CC(C)CCC(=O)N1CCC(c2nc(-c3cccs3)no2)CC1")
"t"
>>> class_assignment("S=C(Nc1ccccc1)N1CCC(c2nc(-c3cccs3)no2)CC1")
"f"
>>> class_assignment("N#CCC(=O)N1CCC(c2nc(-c3ccc(Br)s3)no2)CC1")
"t"
>>> class_assignment("COc1ccc2nc(-c3noc(C4CCN(C(=O)CN=[N+]=[N-])CC4)n3)sc2c1")
"f"
>>> class_assignment("O=C(CC1CCCCC1)N1CCC(c2nc(-c3cccs3)no2)CC1")
"f"
